Target: His-tagged human recombinant kinase full-length Akt2 activated by PDK1 (Homo sapiens (Human), UniProt P31751)
Sequence (P31751 whole entry): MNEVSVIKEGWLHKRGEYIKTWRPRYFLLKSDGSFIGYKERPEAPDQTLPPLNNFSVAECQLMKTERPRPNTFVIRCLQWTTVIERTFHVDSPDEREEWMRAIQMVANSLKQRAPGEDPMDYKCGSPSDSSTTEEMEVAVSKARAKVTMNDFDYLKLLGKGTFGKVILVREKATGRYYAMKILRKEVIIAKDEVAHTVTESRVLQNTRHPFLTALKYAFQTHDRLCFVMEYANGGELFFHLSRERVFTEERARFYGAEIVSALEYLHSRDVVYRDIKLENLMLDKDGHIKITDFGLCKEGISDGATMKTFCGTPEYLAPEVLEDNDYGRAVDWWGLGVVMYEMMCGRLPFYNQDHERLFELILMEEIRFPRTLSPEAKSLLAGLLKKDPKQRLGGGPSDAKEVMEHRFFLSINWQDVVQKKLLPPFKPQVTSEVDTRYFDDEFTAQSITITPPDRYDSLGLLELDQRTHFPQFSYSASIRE
Assay: Akt2 kinase assay (Akt2 TR-FRET assay, Biological Assay 2.0)
Assay type: biochemical
Conditions: 10 μM ATP, 1 μM biotinylated peptide substrate, 60 min at 22° C.
recorded-endpoint: IC50 (nM)

// below: answered molecules
                                   molecule  result_value
0  Cc1cn2cc(-c3ccccc3)c(-c3ccc(CN4CCC(c5cnc6ccccc6n5)CC4)cc3)nc2n1 [Example 37.0]           256
1  Cc1cccc(-c2nc(C3CCN(Cc4ccc(-c5nc6nccn6cc5-c5ccccc5F)cc4)CC3)n[nH]2)n1 [Example 54.0]            17
2  N#Cc1ccc2nc(C3CCN(Cc4ccc(-c5nc6nccn6cc5-c5ccccc5)cc4)CC3)[nH]c2c1 [Example 9.0]           426

a = Fc1ccc(-c2cn3c(Cl)cnc3nc2-c2ccc(CN3CCC(c4n[nH]c(-c5ccccn5)n4)CC3)cc2)cc1 [Example 53.1]
b = Cc1cccc(-c2nc(C3CCN(Cc4ccc(-c5nc6nccn6cc5-c5ccc(F)cc5)cc4)CC3)n[nH]2)n1 [Example 52.0]
[in] So which one has the bigger IC50 here, a or b ? Your answer should be the label attached to the chosen record.
[out] a

----------
Target: His-tagged human recombinant kinase full-length Akt2 activated by PDK1 (Homo sapiens (Human))
Assay: Akt2 kinase assay (Akt2 TR-FRET assay, Biological Assay 2.0)
Details: 10 μM ATP, 1 μM biotinylated peptide substrate, 60 min at 22° C.
Description: Biological Assay 2.0: Akt2 Kinase Assay Akt2 inhibitory activity of compounds of the present invention was quantified employing the Akt2 TR-FRET assay as described in the following paragraphs. His-tagged human recombinant kinase full-length Akt2 expressed in insect cells and activated by PDK1 was purchased form Invitrogen (part number PV 3975). […]
recorded-endpoint: IC50 (nM)

a = COC(=O)c1cnn2cc(-c3ccc(F)cc3F)c(-c3ccc(CN4CC(c5n[nH]c(-c6ccccn6)n5)C4)cc3)nc12
b = Cc1nc2nc(-c3ccc(CN4CC(c5nnc(-c6ccccn6)[nH]5)C4)cc3)c(-c3ccccc3)cn2n1
c = c1ccc(-c2cn3nc(C4CC4)nc3nc2-c2ccc(CN3CC(c4n[nH]c(-c5ccccn5)n4)C3)cc2)cc1
[in] Order the above compounds by increasing IC50. Give the labels in the order specified.
[out] c, b, a

----------
Biological target: His-tagged human recombinant kinase full-length Akt2 activated by PDK1 (Homo sapiens (Human))
Experiment: Akt2 kinase assay (Akt2 TR-FRET assay, Biological Assay 2.0)
Details: 10 μM ATP, 1 μM biotinylated peptide substrate, 60 min at 22° C.
recorded-endpoint: IC50 (nM)

In [3]: df
Out[3]:
                                   molecule  result_value
0  Fc1ccc(-c2cn3nc(C4CC4)nc3nc2-c2ccc(CN3CCC(c4n[nH]c(-c5cc(Cl)ccn5)n4)CC3)cc2)cc1 [Example 51.2]           165
1  Cc1nc2nc(-c3ccc(CN4CCC(c5nc6ccc(C(F)(F)F)cc6[nH]5)CC4)cc3)c(-c3ccccc3)cn2n1 [Example 21.0]          2500
2  Nc1ncnc2c1cnn2C1CCN(Cc2ccc(-c3nc4ccnn4cc3-c3ccccc3)cc2)CC1 [Example 19.0]           332
3  c1ccc(-c2cn3ccnc3nc2-c2ccc(CN3CCC(c4cnc5ccccc5n4)CC3)cc2)cc1 [Example 36.0]           589
4  Cc1cn2cc(-c3ccccc3)c(-c3ccc(CN4CC(c5n[nH]c(-c6ccccn6)n5)C4)cc3)nc2n1 [Example 56.0]            47

a = Cc1cccc(-c2nc(C3CCN(Cc4ccc(-c5nc6nc(C)nn6cc5-c5cccc(F)c5)cc4)CC3)n[nH]2)n1 [Example 49.0]
b = CC(C)Nc1nc2nc(-c3ccc(CN4CC(c5n[nH]c(-c6ccccn6)n5)C4)cc3)c(-c3ccccc3)cn2n1 [Example 43.1]
c = Cc1nc2nc(-c3ccc(CN4CCC(c5cnc6ccccc6n5)CC4)cc3)c(-c3ccccc3)cn2n1 [Example 24.1]
d = Cc1cccc(-c2nc(C3CN(Cc4ccc(-c5nc6nc(-c7ccccn7)nn6c(NC(C)C)c5-c5ccccc5)cc4)C3)n[nH]2)n1 [Example 69.0]
[in] Sort ascending by IC50. Give the labels in the order specified.
[out] b, d, a, c

Origin of measurements: patent US8957064B2
